# PROCEDURE_TEXT: Hemolytic activity in mouse Red blood cells incubated for 1 hr by absorbance based analysis
# Assay type: toxicity, cell-based
# APPLIED_CONDITIONS: erythrocyte
Would you mind telling me the reported HC10 of each entry?
Field note: include the unit after the figure.

compound CCCCCCCCCCCC(=O)N[C@@H](CCCNC(=N)N)C(=O)N[C@@H](CCCNC(=N)N)C(=O)N[C@@H](Cc1c[nH]c2ccccc12)C(=O)O , HC10 observed: 128 µM

// CCCCCCCCCCCC(=O)N[C@H](CCCNC(=N)N)C(=O)N[C@@H](CCCNC(=N)N)C(=O)N[C@H](Cc1c[nH]c2ccccc12)C(=O)O : HC10 value = 128 µM

compound CCCCCCCCCCCC(=O)N[C@H](CCCNC(=N)N)C(=O)N[C@H](CCCNC(=N)N)C(=O)N[C@@H](Cc1c[nH]c2ccccc12)C(=O)O , HC10 observed: 128 µM

The reported value for CCCCCCCCCCCC(=O)N[C@H](CCCNC(=N)N)C(=O)N[C@H](CCCNC(=N)N)C(=O)N[C@H](Cc1c[nH]c2ccccc12)C(=O)O in terms of HC10 is 64 µM

Consider CCCCCCCCCCCC(=O)N[C@H](CCCNC(=N)N)C(=O)N[C@@H](CCCNC(=N)N)C(=O)N[C@@H](Cc1c[nH]c2ccccc12)C(=O)O . Its measured HC10 is 64 µM

HC10 measured on CCCCCCCCCCCC(=O)N[C@@H](CCCNC(=N)N)C(=O)N[C@@H](CCCNC(=N)N)C(=O)N[C@H](Cc1c[nH]c2ccccc12)C(=O)O = 128 µM

Noted for CCCCCCCCCCCC(=O)N[C@@H](CCCNC(=N)N)C(=O)N[C@H](CCCNC(=N)N)C(=O)N[C@@H](Cc1c[nH]c2ccccc12)C(=O)O : its HC10 reads 128 µM

The reported value for CCCCCCCCCCCC(=O)N[C@@H](CCCNC(=N)N)C(=O)N[C@H](CCCNC(=N)N)C(=O)N[C@H](Cc1c[nH]c2ccccc12)C(=O)O in terms of HC10 is 64 µM

* * *

# PROCEDURE_TEXT: Toxicity in Balb/c mouse assessed as survival rate at 20 mg/kg, ip measured after 7 days
# Type: organism-based
# APPLIED_CONDITIONS: in vivo, time 7 day
MEASURED_ENDPOINT: survival at 168 h (%)
Kindly answer with a numeric value in %, unit omitted.

Field survival at 168 h (entry CCCCCCCCCCCC(=O)N[C@H](CCCNC(=N)N)C(=O)N[C@H](CCCNC(=N)N)C(=O)N[C@H](Cc1c[nH]c2ccccc12)C(=O)O ) reads 62.5

* * *

# PROCEDURE_TEXT: Retention time of compound by RP-HPLC analysis
# Format: physicochemical
MEASURED_ENDPOINT: Retention_time (min)
State just the number; it will be interpreted in min.

# compound CCCCCCCCCCCC(=O)N[C@@H](CCCNC(=N)N)C(=O)N[C@H](CCCNC(=N)N)C(=O)N[C@@H](Cc1c[nH]c2ccccc12)C(=O)O ; its Retention_time = 18.997

// field: Retention_time; key: CCCCCCCCCCCC(=O)N[C@H](CCCNC(=N)N)C(=O)N[C@@H](CCCNC(=N)N)C(=O)N[C@@H](Cc1c[nH]c2ccccc12)C(=O)O ; value = 19.259

The compound listed as CCCCCCCCCCCC(=O)N[C@@H](CCCNC(=N)N)C(=O)N[C@@H](CCCNC(=N)N)C(=O)N[C@@H](Cc1c[nH]c2ccccc12)C(=O)O shows Retention_time equal to 18.643

Sure, the documented Retention_time for CCCCCCCCCCCC(=O)N[C@H](CCCNC(=N)N)C(=O)N[C@H](CCCNC(=N)N)C(=O)N[C@H](Cc1c[nH]c2ccccc12)C(=O)O is 17.826

// field: Retention_time; key: CCCCCCCCCCCC(=O)N[C@@H](CCCNC(=N)N)C(=O)N[C@@H](CCCNC(=N)N)C(=O)N[C@H](Cc1c[nH]c2ccccc12)C(=O)O ; value = 18.476

Retention_time reported for this compound CCCCCCCCCCCC(=O)N[C@H](CCCNC(=N)N)C(=O)N[C@@H](CCCNC(=N)N)C(=O)N[C@H](Cc1c[nH]c2ccccc12)C(=O)O : 19.092

CCCCCCCCCCCC(=O)N[C@H](CCCNC(=N)N)C(=O)N[C@H](CCCNC(=N)N)C(=O)N[C@@H](Cc1c[nH]c2ccccc12)C(=O)O has a reported Retention_time of 18.527

According to the records, this compound CCCCCCCCCCCC(=O)N[C@@H](CCCNC(=N)N)C(=O)N[C@H](CCCNC(=N)N)C(=O)N[C@H](Cc1c[nH]c2ccccc12)C(=O)O displays Retention_time of 19.303
